Run Description: Recovery over time from exposure to cell culture media without cells (GC-MS/MS)
Assay type: physicochemical
Conditions Used: O-Rings; one phase association fit
Recorded Endpoint: Span
Lab note: write the figure by itself, no unit.

query: So what's the measured Span for this one? c1ccc2c(c1)Cc1ccccc1-2
result: 3.406

query: Another molecule: c1ccc2cc3c(cc2c1)-c1cccc2cccc-3c12 [Benzo[k]fluoranthene]
result: 0.7169

query: What do you have for c1ccc2c(c1)-c1cccc3cccc-2c13 ?
result: 1.091

query: Item: c1ccc2cc3ccccc3cc2c1
result: 0.5569

query: Item: c1ccc2ccccc2c1
result: 1.24

query: Quick one: C1=Cc2cccc3cccc1c23
result: 0.7495

query: Likewise for c1ccc2c(c1)ccc1ccccc12 ?
result: 0.5682

query: How about Cc1cccc2ccccc12 ?
result: 1.085

query: Similarly, c1cc2c3c(cccc3c1)CC2 ?
result: 0.8562

query: And the next one, c1ccc2c(c1)cc1ccc3cccc4ccc2c1c34 [Benzo[a]pyrene] ?
result: 1.314

----------
Run Description: Loading kinetics of silicone micro-O-rings from methanol PAH solution (GC-MS/MS)
Format: physicochemical
Assign Plateau Value to each entry below.
Format: numeric value only, no unit, no commentary.

query: Item c1cc2cccc3c4cccc5cccc(c(c1)c23)c54 has what recorded Plateau Value?
result: 0.1047

query: What would you report for c1ccc2c(c1)-c1cccc3c1c-2cc1ccccc13 [Benzo[b]fluoranthene] ?
result: 0.1089

query: Same lookup for c1ccc(-c2ccccc2)cc1 , please.
result: 0.6997

query: Can you handle Cc1ccc2ccccc2c1 next?
result: 0.8914

query: Same for c1ccc2cc3c(ccc4ccccc43)cc2c1 [Benzo[a]anthracene]
result: 0.1684

----------
So I've got a bunch of molecules here, and I need their Plateau values.
Run Description: Recovery over time from exposure to cell culture media without cells (GC-MS/MS)
Assay type: physicochemical
Conditions Used: O-Rings (loaded in 10 µg/mL PAH solution); one phase association fit of nominal recovery
Please reply with the number alone, leaving off any unit.

query: Find the recorded Plateau belonging to c1ccc2c(c1)Cc1ccccc1-2 [Fluorene] and report it.
result: 2.925

query: Please answer likewise for c1ccc2c(c1)ccc1ccccc12 [Phenanthrene]
result: 0.3728

query: Check c1ccc2cc3ccccc3cc2c1 [Anthracene] too.
result: 0.3725

query: What about this molecule? c1ccc2cc3c(cc2c1)-c1cccc2cccc-3c12 [Benzo[k]fluoranthene]
result: 0.7223

query: Try the molecule c1ccc2c(c1)-c1cccc3cccc-2c13 [Fluoranthene]
result: 0.9705

query: Likewise for C1=Cc2cccc3cccc1c23 [Acenaphthylene] ?
result: 0.6692

query: Can you check c1ccc2ccccc2c1 [Naphthalene] next?
result: 1.084

query: Check Cc1cccc2ccccc12 [1-Methylnaphthalene] too.
result: 1.035

query: // same read-out, input: c1cc2c3c(cccc3c1)CC2 [Acenaphthene]
result: 0.8203

query: Next record, please: c1ccc2c(c1)cc1ccc3cccc4ccc2c1c34 [Benzo[a]pyrene]
result: 1.337

----------
Run Description: Recovery over time from exposure to cell culture media without cells (GC-MS/MS)
Format: physicochemical
Conditions Used: MAF; one phase decay fit
I'd be grateful if you could share measured K for these entries.
Kindly provide the number alone.

query: So what's the measured K for this one? c1ccc2c(c1)-c1cccc3cccc-2c13 [Fluoranthene]
result: 0.2998

query: And the next one, c1ccc2c(c1)Cc1ccccc1-2 [Fluorene] ?
result: 0.7944

query: Likewise for c1ccc2c(c1)ccc1ccccc12 [Phenanthrene] ?
result: 0.9181

query: Next record, please: c1ccc2cc3c(cc2c1)-c1cccc2cccc-3c12 [Benzo[k]fluoranthene]
result: 0.2609

query: For Cc1cccc2ccccc12 [1-Methylnaphthalene] then?
result: 1.206

query: Now the compound c1cc2c3c(cccc3c1)CC2 [Acenaphthene]
result: 0.9374

query: Repeat with c1ccc2c(c1)cc1ccc3cccc4ccc2c1c34 [Benzo[a]pyrene]
result: 0.5026

query: Now try c1ccc2cc3ccccc3cc2c1 [Anthracene] .
result: 0.9206

query: Can you handle c1ccc2ccccc2c1 [Naphthalene] next?
result: 1.287

query: Same question for C1=Cc2cccc3cccc1c23 [Acenaphthylene] please.
result: 1.016
